meta.source: patent US20240067632A1

testedSystem: WEE1 (Homo sapiens, UniProt P30291+Q96SW2)
Construct: C-terminal ePL-tagged (DiscoverX, Fremont, CA) full-length WEE1 expression construct; expressed in transfected cells; host or cells: LentiX-HEK293T (Invitrogen), lentiviral transduction; co-expressing GSPT1-GN (G576N, lacking the first 158 amino acids)
assayRemarks: WEE1-ePL degradation assay (LentiX-WEE1-ePL-GSPT1-ND cells, InCELL Hunter luminescence, 4 h)
Assay type: cell-based
particulars: 293T-LentiX WEE1-ePL cells, read-out: 293T-LentiX WEE1-ePL Degradation 4 hr (EC50)
Below, each of the compounds is paired with its reported log10 DC50 value.
quantityName: log10 DC50 (log10 of the value in nM)

• O=C1CCC(N2Cc3cc(O[C@H]4CCN(Cc5ccc6nc(N7CCC[C@@]78CCOC8)ccc6c5)C4)ccc3C2=O)C(=O)N1 (some centres unmarked) = 0.56
• C[C@@H]1CN(Cc2cc(F)c3nc([C@H]4CCOC4)ccc3c2)C[C@H]1Oc1ccc2c(c1)CN(C1CCC(=O)NC1=O)C2=O (some centres unmarked) = 0.19
• O=C1CCC(N2Cc3cc(O[C@H]4CCN(Cc5ccc6nc(N7CCC[C@@]78CCOC8)ncc6c5)C4)ccc3C2=O)C(=O)N1 (some centres unmarked) = 1.10
• Cc1nc2ccc(CN3CC[C@H](Oc4ccc5c(c4)CN(C4CCC(=O)NC4=O)C5=O)C3)cc2cc1F (some centres unmarked) = 0.84
• CC1(C)COCCN1c1ncc2cc(CN3CC[C@H](Oc4ccc5c(c4)CN(C4CCC(=O)NC4=O)C5=O)C3)ccc2n1 (some centres unmarked) = 0.68
• O=C1CCC(N2Cc3cc(O[C@H]4CCN(Cc5ccc6nc(CO)ccc6c5)C4)ccc3C2=O)C(=O)N1 (some centres unmarked) = 0.97
• CN1CCCc2c(CN3CC[C@H](Oc4ccc5c(c4)CN(C4CCC(=O)NC4=O)C5=O)C3)cncc21 (some centres unmarked) = 1.29
• O=C1CCC(N2Cc3cc(O[C@H]4CCN(Cc5ccc6cnncc6c5)C4)ccc3C2=O)C(=O)N1 (some centres unmarked) = 2.17
